assay: Thermodynamic stability / solvent competition among crystal forms
Type: physicochemical
assay.setup: anhydrous solvents, temperature below 50° C.
measurement.label: thermodynamic status among anhydrate crystal forms

molecule	reported.result
O=C(c1cc(Cn2c(=O)[nH]c(=O)c3c(F)cccc32)ccc1F)N1CCN(c2ncccn2)CC1 [Crystal Form VI]	metastable
O=C(c1cc(Cn2c(=O)[nH]c(=O)c3c(F)cccc32)ccc1F)N1CCN(c2ncccn2)CC1 [Crystal Form IX]	metastable
O=C(c1cc(Cn2c(=O)[nH]c(=O)c3c(F)cccc32)ccc1F)N1CCN(c2ncccn2)CC1 [Crystal Form III]	metastable

Reference for the values: patent US12534454B2
